All values here come from ChEMBL document CHEMBL2203057.

# assay.system: Sodium-dependent serotonin transporter (Homo sapiens, UniProt P31645)
# Sequence (P31645 whole entry): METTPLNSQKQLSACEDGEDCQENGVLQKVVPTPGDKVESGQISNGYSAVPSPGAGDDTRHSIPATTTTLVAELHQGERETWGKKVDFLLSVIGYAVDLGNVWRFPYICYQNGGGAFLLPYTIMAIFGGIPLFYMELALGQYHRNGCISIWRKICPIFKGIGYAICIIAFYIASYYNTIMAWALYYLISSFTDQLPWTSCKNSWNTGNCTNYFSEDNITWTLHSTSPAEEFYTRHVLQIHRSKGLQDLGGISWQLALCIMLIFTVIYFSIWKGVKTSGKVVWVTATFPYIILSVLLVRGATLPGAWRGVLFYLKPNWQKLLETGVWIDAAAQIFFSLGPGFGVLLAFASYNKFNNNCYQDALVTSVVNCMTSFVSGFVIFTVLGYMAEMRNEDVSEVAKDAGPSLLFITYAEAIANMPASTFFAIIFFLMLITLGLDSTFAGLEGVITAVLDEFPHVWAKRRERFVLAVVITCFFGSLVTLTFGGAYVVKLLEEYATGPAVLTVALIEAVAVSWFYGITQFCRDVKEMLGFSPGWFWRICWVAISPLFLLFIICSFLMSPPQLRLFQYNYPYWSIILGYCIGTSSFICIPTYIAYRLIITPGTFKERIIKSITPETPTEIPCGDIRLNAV
# protocol.details: Displacement of [3H]5-HT from human SERT expressed in HEK293 cells
# Type: cell-based
pIC50: −log10 of the molar value.
parameter.measured: pIC50

[[record]]
structure_smiles_string = "COC(=O)[C@H]1[C@@H](c2ccc(C)cc2)C[C@@H]2CC[C@H]1N2CC#CCF"
assay_system = "Sodium-dependent serotonin transporter (Homo sapiens, UniProt P31645)"
recorded_result = 6.62

